Readings of T/C for the listed compounds
test system: BDF1 mice, P388 leukemia ip, median survival T/C; assay: NCI In Vivo Anticancer Drug Screen. Data for tumor model P388 Leukemia (intraperitoneal) in B6D2F1 (BDF1) mice; conditions: endpoint: median survival time; dose: 3.13 mg/kg/injection; schedule: Q01DX009 (ip); vehicle: saline with Tween-80; higher = longer survival
Toxic doses and inconclusive results are not listed.

The following compounds have reported results that may help.
1) CC/C=N/NC(N)=S    94 % of control
2) CC([CH2][Hg][Cl])c1ccccc1 (centres undefined)    122 % of control
3) CN(C)C(=S)N=Nc1c(O)[nH]c2ccccc12    100 % of control

Alright, here's another compound for you.
Request: Returns the measured T/C for the input compound. Input: NC(=O)/C=C/C(=O)c1c(Cl)cccc1Cl
Result: 118 % of control
